# assay-protocol: Inhibition of ROCK1 in human THP1 cells assessed as inhibition of MCP1-induced cell migration
I'd be grateful if you could share measured pIC50 for these entries.
Quick note: pIC50 means taking -log10 of the concentration in moles per liter.

-- ask Entry "c1ccc2c(c1)CC(Oc1nc(Nc3ccncc3)nc(N3CCNCC3)n1)C2" : reported pIC50 = ?
-- reply 7.24

-- ask Entry "c1ccc2c(c1)CC(Nc1cc(Nc3ccncc3)nc(N3CCNCC3)n1)C2" : reported pIC50 = ?
-- reply 7.92

-- ask Entry "C[C@@H]1CN(c2nc(Nc3ccncc3)nc(NC3Cc4ccccc4C3)n2)CCN1" : reported pIC50 = ?
-- reply 7.59

-- ask Entry "c1ccc2c(c1)CC(Nc1cc(N3CCNCC3)nc(Nc3ccncc3)n1)C2" : reported pIC50 = ?
-- reply 6.81
